This listing pairs compounds with measured z-score.
- assay_explanation: survival rescue of mitochondrial mutant cells in low glucose, primary screen, MELAS cybrids, Rieske KO mouse fibroblasts, CellTiter-Glo (AID 1508586);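 also: z relative to plate mean and SD of compound and empty wells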
- details: Rieske KO mouse fibroblast survival, CellTiter-Glo 72 h

- compound: "N#Cc1cc(NC(=O)C(=O)O)c(Cl)c(NC(=O)C(=O)O)c1"
  z-score: -0.697
- compound: "O=C(O)c1cc(=O)[nH]c(=O)[nH]1"
  z-score: -0.146
- compound: "COc1c2ccoc2cc2oc(=O)ccc12"
  z-score: -0.177
- compound: "CC(C)[N+]1(C)C2CCC1CC(OC(=O)C(CO)c1ccccc1)C2 (stereo not given)"
  z-score: -0.136
- compound: "COc1cc(S(C)=O)ccc1-c1nc2ncccc2[nH]1 (stereo not given)"
  z-score: 0.17
- compound: "CC(=O)N(CC(O)CO)c1c(I)c(C(=O)NCC(O)CO)c(I)c(C(=O)NCC(O)CO)c1I (stereo not given)"
  z-score: -0.115
- compound: "O=C(Nc1cc(C(F)(F)F)cc(C(F)(F)F)c1)c1cc(Cl)ccc1O"
  z-score: -0.453
- compound: "CC[N+](CC)(CC(=O)Nc1c(C)cccc1C)Cc1ccccc1"
  z-score: -0.906
- compound: "N[C@@H](Cc1cc(I)c(Oc2ccc(O)c(I)c2)c(I)c1)C(=O)O"
  z-score: -1.73
- compound: "CN(C)CCN(Cc1ccc(Cl)cc1)c1ccccn1"
  z-score: -0.776
- compound: "CC(=O)Nc1c(I)c(NC(C)=O)c(I)c(C(=O)O)c1I"
  z-score: 0.624
- compound: "COc1nccnc1NS(=O)(=O)c1ccc(N)cc1"
  z-score: -0.166
- compound: "CC[C@@]1(O)C[C@H](O[C@H]2C[C@H](N(C)C)[C@H](O[C@H]3C[C@H](O)[C@H](O[C@H]4CCC(=O)[C@H](C)O4)[C@H](C)O3)[C@H](C)O2)c2c(cc3c(c2O)C(=O)c2c(O)cccc2C3=O)[C@H]1C(=O)OC"
  z-score: 2.56
- compound: "O=S(=O)(O)Oc1ccc(C(c2ccc(OS(=O)(=O)O)cc2)c2ccccn2)cc1"
  z-score: -0.14
- compound: "CC1=C(C(=O)OC(C)C)C(c2cccc([N+](=O)[O-])c2)C(C(=O)OC2CN(C(c3ccccc3)c3ccccc3)C2)=C(N)N1 (stereo not given)"
  z-score: -0.252
- compound: "C=C[C@H]1CN2CC[C@H]1C[C@H]2[C@H](O)c1ccnc2ccc(OC)cc12"
  z-score: 1.17
- compound: "CCCC1O[C@@H]2C[C@H]3[C@@H]4CCC5=CC(=O)C=C[C@]5(C)[C@H]4[C@@H](O)C[C@]3(C)[C@]2(C(=O)CO)O1 (stereo not given in full)"
  z-score: -0.0716
- compound: "Cc1cc2c(OCC(CNC(C)(C)C)OC(=O)c3ccccc3)cccc2[nH]1 (stereo not given)"
  z-score: -1.26
- compound: "CN1CCN(CCCN2c3ccccc3Sc3ccc(S(=O)(=O)N(C)C)cc32)CC1"
  z-score: 0.522
- compound: "Clc1ccc(Cn2c(CN3CCCC3)nc3ccccc32)cc1"
  z-score: 0.481

----------
- assay_explanation: growth inhibition of DIPG glioma cells, dose response, cell-based, SU-DIPG-IV, MIPE4.0, CellTiter-Glo, qHTS (AID 1347063);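 also: compound exposure lasted 48 hours before the viability readout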
- details: SU-DIPG-IV viability, CellTiter-Glo ATP luminescence
Results filed as inconclusive are left out. Activity calls are given as the source filed them. Cut-off not given; nearly all actives show AC50 up to about 30 µM.
Outcome codes: T = active, F = inactive

- chemical_smiles: "C[C@H]1C[C@H]2[C@@H]3CCC4=CC(=O)C=C[C@]4(C)[C@@]3(F)[C@@H](O)C[C@]2(C)[C@@]1(O)C(=O)CO"
  category: "F"
- chemical_smiles: "O=c1c(O)c(-c2ccc(O)c(O)c2)oc2cc(O)ccc12"
  category: "T"
- chemical_smiles: "COc1cc([C@@H]2c3cc4c(cc3[C@H](O)[C@H]3COC(=O)[C@@H]23)OCO4)cc(OC)c1OC"
  category: "T"
- chemical_smiles: "CC(C)OC(=O)C(C(=O)OC(C)C)=C1SC=CS1"
  category: "F"
- chemical_smiles: "O=C(Nc1cc(C(F)(F)F)cc(C(F)(F)F)c1)c1cc(Cl)ccc1O"
  category: "T"

----------
- assay_explanation: liver-stage malaria parasite growth inhibition, primary screen, cell-based, HepG2, luciferase luminescence, HepG2 viability (AID 624349);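 also: 100% = mean of DMSO negative control wells on the same plate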
- details: P. berghei liver stage in HepG2, luciferase luminescence, concentration not given here; measured here: HepG2 viability without parasites
This listing pairs molecules with measured viability.

- molecule: "Oc1cc(O)c2c(c1)O[C@H](c1ccc(O)c(O)c1)[C@@H](O)C2"
  value_unit: "%"
  viability: 105
- molecule: "NS(=O)(=O)c1cc(Cl)c(Cl)c(S(N)(=O)=O)c1"
  value_unit: "%"
  viability: 104
- molecule: "CC[C@@H](C(=O)[C@@H](C)[C@@H](O)[C@H](C)CCc1ccc(C)c(O)c1C(=O)O)[C@H]1O[C@](CC)([C@H]2CC[C@](O)(CC)[C@H](C)O2)C[C@@H]1C"
  value_unit: "%"
  viability: 110
- molecule: "CC(C)(C)C(=O)C(Oc1ccc(Cl)cc1)n1ccnc1 (stereo not given)"
  value_unit: "%"
  viability: 70
- molecule: "COc1cc(C(=O)NCCCCCC(=O)O)cc(OC)c1OC"
  value_unit: "%"
  viability: 104
- molecule: "OC1C(O)C(O)C(O)C(O)C1O (stereo not given)"
  value_unit: "%"
  viability: 104
- molecule: "Cc1ccc(C(=O)c2cc(O)c(O)c([N+](=O)[O-])c2)cc1"
  value_unit: "%"
  viability: 97
- molecule: "COc1cc(S(C)=O)ccc1-c1nc2ncccc2[nH]1 (stereo not given)"
  value_unit: "%"
  viability: 101
- molecule: "COC(=O)C(C)c1ccc(C(=O)c2cccs2)cc1 (stereo not given)"
  value_unit: "%"
  viability: 76.5
- molecule: "Cc1ccc(-c2ncc(Cl)cc2-c2ccc(S(C)(=O)=O)cc2)cn1"
  value_unit: "%"
  viability: 120

----------
This listing pairs compounds with measured cell count.
- assay_explanation: sensitizers of A549 cells to miR-34 induction, primary screen, imaging, A549 dox-inducible miR-34, nuclei and caspase counts (AID 1347080)
- details: A549 miR-34 inducible, Hoechst nuclei count, 48 h; measured here: total cells without miR-34 induction

- compound: "CC(=O)N(CC(O)CO)c1c(I)c(C(=O)NCC(O)CO)c(I)c(C(=O)NCC(O)CO)c1I (stereo not given)"
  cell count: 10600
- compound: "CC(=O)OCC(=O)[C@@]1(O)CC[C@H]2[C@@H]3C[C@H](C)C4=CC(=O)C=C[C@]4(C)[C@H]3[C@@H](O)C[C@@]21C"
  cell count: 8460
- compound: "NC(=O)CCCCC1CCSS1 (stereo not given)"
  cell count: 9400
- compound: "COc1ccc([C@@H]2CC(=O)c3c(O)cc(O[C@@H]4O[C@H](CO[C@@H]5O[C@@H](C)[C@H](O)[C@@H](O)[C@H]5O)[C@@H](O)[C@H](O)[C@H]4O)cc3O2)cc1O"
  cell count: 10100
- compound: "CN1CCCC(CC2c3ccccc3Sc3ccccc32)C1 (stereo not given)"
  cell count: 7740
- compound: "[O-][n+]1cccc(CO)c1"
  cell count: 8950
- compound: "NC(=O)OCC(O)COc1ccc(Cl)cc1 (stereo not given)"
  cell count: 9380
- compound: "CCC1NC(=O)c2cc(S(N)(=O)=O)c(Cl)cc2N1 (stereo not given)"
  cell count: 8810
- compound: "CC(C)CCCC(C)N (stereo not given)"
  cell count: 12800
- compound: "COc1cc(C)c(C=CC(C)=CC=CC(C)=CC(=O)O)c(C)c1C"
  cell count: 8080

----------
This listing pairs compounds with measured remaining NAD.
- experimental_target: NAD(+) hydrolase SARM1 (Homo sapiens)
- assay_explanation: SARM1 TIR NADase inhibitors, cell lysate, NAD-Glo luminescence (AID 1508614);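 also: higher remaining NAD means stronger inhibition of SARM1 NADase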
- details: SAM-TIR HEK293T lysate NADase, at 1 µM, stronger effect = higher value
Active and inactive are the calls of the source.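 The calls were made as follows: active = compound whose remaining NAD level is above about 45 nM (limit read from the data); inactive = the rest.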

- compound: "CC(C)C[C@H]1C(=O)N2CCC[C@H]2[C@]2(O)O[C@](NC(=O)[C@@H]3C=C4c5cccc6[nH]c(Br)c(c56)C[C@H]4N(C)C3)(C(C)C)C(=O)N12"
  experimental_target: "NAD(+) hydrolase SARM1 (Homo sapiens)"
  remaining NAD: "10 nM (inactive)"
- compound: "O=[N+]([O-])c1ccc(O)c2ncccc12"
  experimental_target: "NAD(+) hydrolase SARM1 (Homo sapiens)"
  remaining NAD: "10 nM (inactive)"
- compound: "CC(=O)O[C@H]1C[C@@]2(C)[C@@H](C[C@@H](O)[C@H]3[C@@]4(C)CC[C@@H](O)[C@@H](C)[C@@H]4CC[C@@]32C)/C1=C(\\CCC=C(C)C)C(=O)O"
  experimental_target: "NAD(+) hydrolase SARM1 (Homo sapiens)"
  remaining NAD: "10 nM (inactive)"
- compound: "Cc1cc(C(C#N)c2ccc(Cl)cc2)c(Cl)cc1NC(=O)c1cc(I)cc(I)c1O (centres undefined)"
  experimental_target: "NAD(+) hydrolase SARM1 (Homo sapiens)"
  remaining NAD: "10 nM (inactive)"
- compound: "O=C(O)CCc1nc(-c2ccccc2)c(-c2ccccc2)o1"
  experimental_target: "NAD(+) hydrolase SARM1 (Homo sapiens)"
  remaining NAD: "10 nM (inactive)"
- compound: "C[N+]1(C)[C@@H]2CC[C@H]1CC(OC(=O)C(O)c1ccccc1)C2 (some centres undefined)"
  experimental_target: "NAD(+) hydrolase SARM1 (Homo sapiens)"
  remaining NAD: "10 nM (inactive)"
- compound: "CC[C@H](c1ccc(O)cc1)[C@@H](CC)c1ccc(O)cc1"
  experimental_target: "NAD(+) hydrolase SARM1 (Homo sapiens)"
  remaining NAD: "10 nM (inactive)"
- compound: "N[C@@H](Cc1ccc(O)cc1)C(=O)O"
  experimental_target: "NAD(+) hydrolase SARM1 (Homo sapiens)"
  remaining NAD: "10 nM (inactive)"
- compound: "C(=C\\c1ccccc1)/CN1CCN(C(c2ccccc2)c2ccccc2)CC1"
  experimental_target: "NAD(+) hydrolase SARM1 (Homo sapiens)"
  remaining NAD: "10 nM (inactive)"

Data provenance: PubChem BioAssay
